test system: galium (catchweed bedstraw, Galium aparine); assay: Test C preemergence, plant response rating; format: in vivo; conditions: 62 g ai/ha, scale 0 to 100
Attribute: Plant response rating, Galium
Give the figure by itself; no unit, no explanation.

[[record]]
chem_smiles = "CCCCC(=O)c1c(Oc2ncc(Cl)cn2)cccc1C(F)(F)F"
experimental_readout = "Plant response rating, Galium"
measured = 90

[[record]]
chem_smiles = "FC(F)(F)CCCCc1c(Br)cccc1Oc1ncc(Cl)cn1"
experimental_readout = "Plant response rating, Galium"
measured = 5

[[record]]
chem_smiles = "CCCC(=O)c1c(Oc2ncc(Cl)cn2)cccc1C(F)(F)F"
experimental_readout = "Plant response rating, Galium"
measured = 50


// Plant response rating, Galium value for "O=C(CCCC(F)(F)F)c1c(Oc2ncc(Cl)cn2)cccc1C(F)(F)F" : 30

====

test system: corn (Zea mays); assay: Test A postemergence, visual injury rating; assay type: in vivo; conditions: 31 g ai/ha, 0 to 100 scale (0 no effect, 100 complete control)
Source text: […]
Each entry below carries its recorded Corn plant response rating.
// keep it numeric: no unit symbol after the value

[[record]]
compound = "CCCCCC(C#N)c1ccccc1Oc1ncc(Cl)cn1 (stereo not shown) [Compound 141]"
experimental_readout = "Corn plant response rating"
measured = 10


Sure, the documented Corn plant response rating for FC(F)(F)CCCCc1c(Br)cccc1Oc1ncc(Cl)cn1 [Compound 138] is 30

compound N#Cc1cccc(Oc2ncc(Cl)cn2)c1COCC(F)(F)F [Compound 131] , Corn plant response rating observed: 20

Documented Corn plant response rating of O=C(CCCC(F)(F)F)c1c(Cl)cccc1Oc1ncc(Cl)cn1 [Compound 143] : 10

====

test system: blackgrass (Alopecurus myosuroides); assay: Test C postemergence, plant response rating; type: in vivo; conditions: 16 g ai/ha, scale 0 to 100
Source text: […]
Entries and their measured Plant response rating, Blackgrass follow.
Form: value (number only, do not type unit).

[[record]]
chem_smiles = "CCCC(=O)c1c(Br)cccc1Oc1ncc(Cl)cn1"
measured = 0

[[record]]
chem_smiles = "CCCCC(=O)c1c(Br)cccc1Oc1ncc(Cl)cn1"
measured = 20

[[record]]
chem_smiles = "CCCC(=O)c1c(Oc2ncc(Cl)cn2)cccc1C(F)(F)F"
measured = 5

[[record]]
chem_smiles = "CCCCC(=O)c1c(Oc2ncc(Cl)cn2)cccc1C(F)(F)F"
measured = 5


Please examine the following record next.
// field: Plant response rating, Blackgrass; key: "N#Cc1cccc(Oc2ncc(Cl)cn2)c1COCCC(F)(F)F" ; value = 0

====

tested on: barnyardgrass (Echinochloa crus-galli); assay: Test B flooded paddy test, plant response rating; format: in vivo; details: 250 g ai/ha; Flood; scale of 0 to 100 where 0 is no effect and 100 is complete control; 13 to 15 days
EXPERIMENTAL READOUT: Plant response rating, Barnyardgrass
// keep it numeric: no unit symbol after the value

Before answering, review these 3 worked examples.
[[record]]
compound = "O=C(OCC(F)(F)F)c1c(F)cccc1Oc1ncc(Cl)cn1 [Compound 48]"
experimental_readout = "Plant response rating, Barnyardgrass"
measured = 20

[[record]]
compound = "COc1cccc(Oc2ncc(Cl)cn2)c1C(C)=O [Compound 51]"
experimental_readout = "Plant response rating, Barnyardgrass"
measured = 15

[[record]]
compound = "CCCCC(=O)c1c(Br)cccc1Oc1ncc(Cl)cn1 [Compound 79]"
experimental_readout = "Plant response rating, Barnyardgrass"
measured = 60


The recorded Plant response rating, Barnyardgrass for entry N#CCCOC(=O)c1c(Br)cccc1Oc1ncc(Cl)cn1 [Compound 7] equals 0

Looking up O=C(SCCC(F)(F)F)c1c(Br)cccc1Oc1ncc(Cl)cn1 [Compound 71] , I see its Plant response rating, Barnyardgrass listed as 0

// recorded Plant response rating, Barnyardgrass for N#Cc1cccc(Oc2ncc(Cl)cn2)c1COCCC(F)(F)F [Compound 80] : 75

So, FC(F)(F)CCCc1c(Cl)cccc1Oc1ncc(Cl)cn1 [Compound 122] ? Its Plant response rating, Barnyardgrass was 80

Briefly, Plant response rating, Barnyardgrass measured for CC(CN(C)C(=O)c1c(Br)cccc1Oc1ncc(Cl)cn1)C(F)(F)F (stereo not shown) [Compound 18] : 0

For reference, reported Plant response rating, Barnyardgrass for FC(F)(F)CCCCc1c(Oc2ncc(Cl)cn2)cccc1C1CC1 [Compound 135] stands at 0

The value of Plant response rating, Barnyardgrass measured for the compound CCCC(=O)c1c(Br)cccc1Oc1ncc(Cl)cn1 [Compound 75] turned out to be 40

====

system: surinam grass (Brachiaria decumbens); assay: Test C postemergence, plant response rating; type: in vivo; details: 16 g ai/ha, scale of 0 to 100
From the text: […]
Plant response rating, Surinam Grass listing for selected molecules.
Output spec: single numeric token, no unit.

[[record]]
molecule = "O=C(CCC(F)(F)C(F)(F)F)c1c(Br)cccc1Oc1ncc(Cl)cn1 [Compound 110]"
experimental_readout = "Plant response rating, Surinam Grass"
measured = 15

[[record]]
molecule = "O=C(CCCCC(F)(F)F)c1c(Br)cccc1Oc1ncc(Cl)cn1 [Compound 82]"
experimental_readout = "Plant response rating, Surinam Grass"
measured = 20

[[record]]
molecule = "CCCC(=O)c1c(Oc2ncc(Cl)cn2)cccc1C(F)(F)F [Compound 136]"
experimental_readout = "Plant response rating, Surinam Grass"
measured = 5

[[record]]
molecule = "CCCCC(=O)c1c(Oc2ncc(Cl)cn2)cccc1C(F)(F)F [Compound 130]"
experimental_readout = "Plant response rating, Surinam Grass"
measured = 10


Switching to the query record.
get_value(item= O=C(CCCC(F)(F)F)c1c(Cl)cccc1Oc1ncc(Cl)cn1 [Compound 143] , readout=Plant response rating, Surinam Grass) returns 5

====

test system: johnsongrass (Sorghum halepense); test: Test C postemergence, plant response rating; type: in vivo; settings: 125 g ai/ha, scale 0 to 100 (0 no effect, 100 complete control)
Form field: Johnsongrass plant response rating (one value per entry).
Lab note: jot the number down without any unit.

Before answering, review these 4 worked examples.
[[record]]
chem_smiles = "O=C(OCC(F)(F)C(F)(F)F)c1c(Br)cccc1Oc1ncc(Cl)cn1"
experimental_readout = "Johnsongrass plant response rating"
measured = 20

[[record]]
chem_smiles = "CCCC(=O)c1c(Br)cccc1Oc1ncc(Cl)cn1"
experimental_readout = "Johnsongrass plant response rating"
measured = 70

[[record]]
chem_smiles = "O=C(CCCCC(F)(F)F)c1c(Br)cccc1Oc1ncc(Cl)cn1"
experimental_readout = "Johnsongrass plant response rating"
measured = 30

[[record]]
chem_smiles = "N#Cc1cccc(Oc2ncc(Cl)cn2)c1COCCC(F)(F)F"
experimental_readout = "Johnsongrass plant response rating"
measured = 5


Sure, the documented Johnsongrass plant response rating for "O=C(CCC(F)(F)F)c1c(Cl)cccc1Oc1ncc(Cl)cn1" is 98

====

system: wild poinsettia (Euphorbia heterophylla); experiment: Test C preemergence, plant response rating; assay type: in vivo; details: 125 g ai/ha, scale of 0 to 100
Below is a list of entries, each paired with its recorded Plant response rating, Poinsettia, Wild value.

Solved entries:
[[record]]
chem_smiles = "FC(F)(F)CCCc1c(Br)cccc1Oc1ncc(Cl)cn1"
experimental_readout = "Plant response rating, Poinsettia, Wild"
measured = 40

[[record]]
chem_smiles = "O=C(CCCC(F)(F)F)c1c(Oc2ncc(Cl)cn2)cccc1C(F)(F)F"
experimental_readout = "Plant response rating, Poinsettia, Wild"
measured = 30

[[record]]
chem_smiles = "FC(F)(F)CCCCc1c(Br)cccc1Oc1ncc(Cl)cn1"
experimental_readout = "Plant response rating, Poinsettia, Wild"
measured = 50


Now let's try a different one.
GET /value?item= "CCCCC(=O)c1c(Br)cccc1Oc1ncc(Cl)cn1" &field=Plant response rating, Poinsettia, Wild returns 40

====

tested on: kochia (Kochia scoparia); test: Test A preemergence, visual injury rating; assay type: in vivo; conditions: 125 g ai/ha, 0 to 100 scale (0 no effect, 100 complete control)
EXPERIMENTAL READOUT: Plant response rating, Kochia
Answer with a number only.

Sample records with Plant response rating, Kochia:
[[record]]
molecule = "CCOCc1c(Br)cccc1Oc1ncc(Cl)cn1"
target_entity = "kochia (Kochia scoparia)"
measured = 30

[[record]]
molecule = "N#Cc1cccc(Oc2ncc(Cl)cn2)c1COCC(F)(F)C(F)(F)F"
target_entity = "kochia (Kochia scoparia)"
measured = 60


Lab note: next molecule to report on.
Field Plant response rating, Kochia (entry "CCc1cccc(Oc2ncc(Cl)cn2)c1CCCCC(F)(F)F" ) reads 10

====

system: kochia (Kochia scoparia); experiment: Test C postemergence, plant response rating; format: in vivo; conditions: 31 g ai/ha, scale 0 to 100
compounds and their reported Plant response rating, Kochia
Answer with a number only.

[[record]]
compound = "O=C(CCCC(F)(F)F)c1c(Br)cccc1Oc1ncc(Cl)cn1 [Compound 77]"
measured = 100

[[record]]
compound = "CCCC(=O)c1c(Oc2ncc(Cl)cn2)cccc1C(F)(F)F [Compound 136]"
measured = 80

[[record]]
compound = "N#CCCOC(=O)c1c(Br)cccc1Oc1ncc(Cl)cn1 [Compound 7]"
measured = 30

[[record]]
compound = "O=C(CCCC(F)(F)F)c1c(Cl)cccc1Oc1ncc(Cl)cn1 [Compound 143]"
measured = 100

[[record]]
compound = "CCCCC(=O)c1c(Br)cccc1Oc1ncc(Cl)cn1 [Compound 79]"
measured = 80


// Plant response rating, Kochia value for CCCCC(=O)c1c(Oc2ncc(Cl)cn2)cccc1C(F)(F)F [Compound 130] : 85

Data origin: patent US11053204B2
